Tested on: Endogenous Huntingtin Protein
EXPERIMENT: Endogenous Huntingtin Protein Assay (ELISA-based MSD electrochemiluminescence)
Type: cell-based
PROTOCOL_CONDITIONS: Table 1
PROPERTY_MEASURED: IC50

[[record]]
compound = "Cc1cn2cc(-c3cc4sc(N[C@@H]5C[C@H]6CC[C@@H](C5)N6C)nc4cn3)cc(C#N)c2n1"
experimental_result = "1 to 3 µM"

[[record]]
compound = "Oc1cc(-c2cn[nH]c2)ccc1-c1cc2sc(NC3CCNCC3)nc2nn1"
experimental_result = "0.1 to 0.5 µM"

[[record]]
compound = "Cc1cn2nc(-c3cc(F)c4nc(C5(C)CCNCC5)sc4c3)cc(C)c2n1"
experimental_result = "0.5 to 1 µM"

[[record]]
compound = "CN(c1nc2cnc(-c3ccc(-c4cn[nH]c4)cc3O)cc2s1)C1CC(C)(C)NC(C)(C)C1"
experimental_result = "3 to 9 µM"

[[record]]
compound = "Cc1cc(-c2cc3sc(N(C)C4CC5CCCC(C4)N5)nc3cn2)cc2cn(C)nc12 (centres unmarked)"
experimental_result = "≤ 0.1 µM"

[[record]]
compound = "Cc1nc2ccc(-c3ccc4nc(C5CCNCC5)sc4c3)cc2[nH]1"
experimental_result = "0.1 to 0.5 µM"

[[record]]
compound = "CN1[C@@H]2CC[C@H]1C[C@H](Nc1nc3cnc(-c4cc(C#N)c5nn(C)cc5c4)cc3s1)C2"
experimental_result = "1 to 3 µM"

[[record]]
compound = "Cc1cn2nc(-c3cc(F)c4nc(OC5CCNCC5)sc4c3)cc(C)c2n1"
experimental_result = "≤ 0.1 µM"

[[record]]
compound = "CN(c1nc2ncc(-c3ccc4nn(C)cc4c3)cc2s1)C1CCNCC1"
experimental_result = "1 to 3 µM"

[[record]]
compound = "Cc1cn2cc(-c3cc(F)c4nc(N(C)C5CCNCC5)sc4c3)cc(C#N)c2n1"
experimental_result = "≤ 0.1 µM"

[[record]]
compound = "Cc1cc(-c2ccc3nc(OC4CC(C)(C)NC(C)(C)C4)sc3c2)cc2cn(C)nc12"
experimental_result = "1 to 3 µM"

[[record]]
compound = "CCc1cc(-c2cc3sc(C4CCNCC4)nc3cn2)cc2cn(C)nc12"
experimental_result = "0.1 to 0.5 µM"

[[record]]
compound = "Cc1cn2cc(-c3ccc4nc(C5CCNCC5)sc4c3)ccc2n1"
experimental_result = "0.1 to 0.5 µM"

[[record]]
compound = "Cc1cn2cc(-c3ccc4nc(C5CCNCC5)sc4c3)cc(C)c2n1"
experimental_result = "≤ 0.1 µM"

[[record]]
compound = "Cc1cn2cc(-c3ccc4nc(C5CCNCC5)sc4c3)cc(F)c2n1"
experimental_result = "≤ 0.1 µM"

[[record]]
compound = "Cc1cn2cc(-c3ncc4nc(N(C)C5C[C@H]6CCC[C@@H](C5)N6)sc4n3)cc(C#N)c2n1 (some centres unmarked)"
experimental_result = "≤ 0.1 µM"

[[record]]
compound = "Cn1cc2cc(-c3ccc4nc(C5=CCCNCC5)sc4c3)ccc2n1"
experimental_result = "0.5 to 1 µM"

